# system: human NAMPT (Homo sapiens, UniProt P43490)
# Sequence (P43490 whole entry): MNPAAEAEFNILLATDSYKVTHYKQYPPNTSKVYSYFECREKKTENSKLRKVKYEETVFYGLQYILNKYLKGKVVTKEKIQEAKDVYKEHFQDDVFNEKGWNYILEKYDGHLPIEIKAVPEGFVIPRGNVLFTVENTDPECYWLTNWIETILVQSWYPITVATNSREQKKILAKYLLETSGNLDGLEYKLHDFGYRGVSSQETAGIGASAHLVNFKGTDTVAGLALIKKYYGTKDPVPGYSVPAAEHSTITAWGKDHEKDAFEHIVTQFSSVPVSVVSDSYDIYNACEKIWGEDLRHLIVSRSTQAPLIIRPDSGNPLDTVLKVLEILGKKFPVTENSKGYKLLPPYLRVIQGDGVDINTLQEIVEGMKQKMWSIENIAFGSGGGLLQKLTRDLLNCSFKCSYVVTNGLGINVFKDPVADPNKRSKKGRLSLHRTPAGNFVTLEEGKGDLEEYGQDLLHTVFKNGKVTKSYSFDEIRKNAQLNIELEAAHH
# assay-protocol: Human recombinant enzyme assay (NMN fluorescence biochemical assay, activation of NAMPT)
# measurement-parameters: Table A; human recombinant NAMPT, NMN formation, 60 min; read-out: EC50 Human
pEC50: −log10 of the molar value.
Tag: 1.0 if measured pEC50 is not below 5, 0.0 if it is.

**Q:** Is pEC50 for Cc1cc(N2CC[C@]3(C2)C[C@@H](NC(=O)NCc2ccc(Cl)cc2)C3)ccn1 at or above 5?
**A:** 0.0

**Q:** Could you verify whether the entry COc1ccc(CNC(=O)NC2CC3(C2)CN(C(=O)C2(c4ccccc4)CC2)C3)cc1 shows pEC50 of no less than 5?
**A:** 0.0

**Q:** # check: pEC50 of O=C(NCc1ccc(Cl)cc1)NC1CC2(C1)CC(NC(=O)c1cccnc1)C2 (centres unmarked) is greater than or equal to 5
**A:** 0.0

**Q:** Would you say COc1ccc(CNC(=O)NC2CC3(C2)CN(S(=O)(=O)C2CC4CCC2C4)C3)cc1 (centres unmarked) shows pEC50 at minimum 5?
**A:** 0.0

**Q:** Please indicate if the recorded pEC50 for Cc1ccc(C(=O)N2CC3(CC(NC(=O)NCc4cocn4)C3)C2)cc1 meets or exceeds 5.
**A:** 0.0

Further cases:
**Q:** Could you tell me if the measured pEC50 of Cc1cccc(N(C)C(=O)CCCCCNC(=O)NCc2ccc(Cl)cc2)c1 reaches 5 or more?
**A:** 1.0

###

# system: endogenous NAMPT (Homo sapiens, UniProt P43490)
# Construct: stimulate the endogenous NAMPT in a native cellular environment; endogenous in cells; host or cells: SH-SY5Y neuroblastoma cells
# Sequence (P43490 whole entry): as above
# assay-protocol: Cellular NAD+ modulation assay in neuroblastoma SH-SY5Y cells
# Type: cell-based
# measurement-parameters: Table B; SH-SY5Y cells, cellular NAD levels, doxorubicin, 40 hours; read-out: EC50
# Description: The compounds described herein were also assayed for their ability to stimulate the endogenous NAMPT in a native cellular environment in the cellular NAD+ modulation assay, which measures the ability of the compound to modulate cellular NAD levels. Increased levels of NAD are expected by compounds that permeate the cells and activate the catalytic activity of the endogenous NAMPT. […]
Threshold-based label: EC50 under 2000 nM gives class 1, EC50 not under 2000 nM gives class 0.

These recorded examples may help you get a feel for the data.
**Q:** Is the reported EC50 for Cc1ncccc1CC1CC2(C1)CC(NC(=O)NCc1ccc(Cl)cc1)C2 (centres unmarked) strictly below 2000 nM?
**A:** class 1

**Q:** # check: EC50 < 2000 nM for COc1ccc(CNC(=O)NC2CC3(C2)CC(C(=O)N2CCCc4ccccc42)C3)cc1 (centres unmarked)
**A:** class 1

**Q:** Find out if reported EC50 for COc1ccc(CNC(=O)NC2CC3(C2)CC(C(=O)N(C)c2ccccc2)C3)cc1 (centres unmarked) is less than 2000 nM
**A:** class 0

**Q:** is_below(EC50, 2000 nM) for CN(C(=O)CCCCCNC(=O)NCc1cn[nH]c1)c1ccccc1F ?
**A:** class 1

**Q:** Here's an entry: COc1ccc(CNC(=O)NC2CC3(C2)CN(C(=O)c2ccc(C)cc2)C3)cc1 . Is its EC50 below 2000 nM?
**A:** class 0

Next:
**Q:** Say whether its EC50 is strictly beneath 2000 nM. Entry: COc1ccc(CNC(=O)NC2CC3(C2)CC(C(=O)N(C)C2CCOC2)C3)cc1 (stereo in doubt)
**A:** class 0

**Q:** Please check: EC50 for O=C(NCc1ccc(Cl)cc1)NC1CC2(C1)CC(NS(=O)(=O)Cc1ccccc1Cl)C2 (centres unmarked) , strictly under 2000 nM or not?
**A:** class 1

**Q:** Criterion: EC50 strictly below 2000 nM. Is it met by O=C(NCCOCCOc1ccccc1)NCc1ccc(Cl)cc1 ?
**A:** class 0

**Q:** is_below(EC50, 2000 nM) for COc1ccc(CNC(=O)NCCCCCOc2ccccc2)cc1 ?
**A:** class 1

**Q:** Is EC50 of Cc1ccccc1C(=O)N1CC[C@]2(C1)C[C@@H](NC(=O)NCc1ccc(Cl)cc1)C2 strictly below 2000 nM?
**A:** class 1

**Q:** Does the reported EC50 of the following compound sit strictly below 2000 nM? O=C(NCCCCC1CCN(C(=O)c2ccccc2)CC1)NCc1ccc(CO)cc1
**A:** class 1

**Q:** API: query returns whether the compound falls strictly under 2000 nM in EC50. Query: COc1ccc(CNC(=O)NC2CC3(C2)CC(C(=O)N2CCN(CC(C)(C)O)CC2)C3)cc1 (centres unmarked)
**A:** class 0

**Q:** Does CN(C(=O)[C@H]1C[C@@]2(C[C@H](NC(=O)NCc3ccc(Cl)cc3)C2)C1)C1CCOC1 (some centres unmarked) have EC50 strictly under 2000 nM?
**A:** class 1
